What IC50 was measured for each of the following?
Molecular target: human Ether-a-go-go-Related Gene (hERG) potassium channel (Homo sapiens, UniProt Q12809)
Sequence (Q12809 whole entry): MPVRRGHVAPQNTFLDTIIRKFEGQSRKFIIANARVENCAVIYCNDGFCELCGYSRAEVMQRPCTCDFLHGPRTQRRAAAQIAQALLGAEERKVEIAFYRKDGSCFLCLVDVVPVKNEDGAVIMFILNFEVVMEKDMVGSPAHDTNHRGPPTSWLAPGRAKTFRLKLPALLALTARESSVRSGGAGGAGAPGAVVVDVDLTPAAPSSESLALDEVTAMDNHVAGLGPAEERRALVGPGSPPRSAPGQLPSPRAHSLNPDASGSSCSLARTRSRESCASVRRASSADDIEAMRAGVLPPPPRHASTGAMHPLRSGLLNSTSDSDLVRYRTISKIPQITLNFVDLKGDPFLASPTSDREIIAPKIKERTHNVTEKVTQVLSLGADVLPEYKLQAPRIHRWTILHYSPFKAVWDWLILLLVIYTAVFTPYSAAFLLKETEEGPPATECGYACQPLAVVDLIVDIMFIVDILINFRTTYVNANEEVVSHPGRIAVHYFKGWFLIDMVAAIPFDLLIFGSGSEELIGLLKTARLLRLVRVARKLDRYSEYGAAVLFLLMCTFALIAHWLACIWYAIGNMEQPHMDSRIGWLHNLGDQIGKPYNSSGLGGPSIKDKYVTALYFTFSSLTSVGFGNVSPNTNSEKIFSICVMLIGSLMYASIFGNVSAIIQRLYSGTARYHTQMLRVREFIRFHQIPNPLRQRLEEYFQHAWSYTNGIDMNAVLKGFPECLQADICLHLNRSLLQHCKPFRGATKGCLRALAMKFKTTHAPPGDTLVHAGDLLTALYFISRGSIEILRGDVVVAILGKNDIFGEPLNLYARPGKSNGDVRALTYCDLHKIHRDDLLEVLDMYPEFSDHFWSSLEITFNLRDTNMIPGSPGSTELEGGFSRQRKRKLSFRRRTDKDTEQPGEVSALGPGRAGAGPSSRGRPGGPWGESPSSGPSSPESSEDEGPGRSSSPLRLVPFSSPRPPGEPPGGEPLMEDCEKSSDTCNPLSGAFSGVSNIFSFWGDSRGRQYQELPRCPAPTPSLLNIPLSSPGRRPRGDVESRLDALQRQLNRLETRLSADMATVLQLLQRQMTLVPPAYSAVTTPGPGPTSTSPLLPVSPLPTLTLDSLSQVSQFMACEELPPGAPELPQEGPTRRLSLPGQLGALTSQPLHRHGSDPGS
Test: Predictor hERG Fluorescence Polarization Assay
Type: binding
Settings: read-out: hERG inhibition, concentration range, Fig. 8B & C

INPUT: Could you share what IC50 was measured for CCCC(=O)OC[C@H]1OC(O)[C@@H](NC(C)=O)[C@@H](OC(=O)CCC)[C@@H]1OC(=O)CCC (some centres unmarked) [3,4,6-O-Bu3ManNAc] , tested on human Ether-a-go-go-Related Gene (hERG) potassium channel (Homo sapiens, UniProt Q12809)?
OUTPUT: 1 to 100 µM

INPUT: Please do the same for CCCC(=O)OC[C@H]1OC(O)[C@H](NC(C)=O)[C@@H](OC(=O)CCC)[C@@H]1OC(=O)CCC (some centres unmarked) [3,4,6-O-Bu3GlcNAc] as well.
OUTPUT: 1 to 100 µM
